System: ACHN renal
Assay info: NCI tumour cell line growth inhibition, 48 h; in the data active = GI50 below about 0.43 µM; inactive = the rest
Returns: one label drawn from active, inactive

Recorded results for 9 molecules are shown here.
CCOC(=O)C1=C(C)N(c2ccc(Cl)cc2)[C@]2(C#N)C(O)=C(Cl)C(Cl)=C(O)[C@]12C#N = inactive
Cc1cc(S(=O)(=O)/N=C(/N)Nc2ccccc2O)c(SCc2ccccc2)cc1Cl = inactive
COc1ccc(-c2nc(Nc3cc(C)[nH]n3)c3ccccc3n2)cc1 = inactive
O=c1[nH]c(=O)n(C2CC(O)C(COP(=O)(OCc3ccc([N+](=O)[O-])o3)N(CCCCCl)CC(O)CO)O2)cc1F (stereo not given) = active
O=C(/C=C\c1cccc([N+](=O)[O-])c1)/C=C/c1cccc([N+](=O)[O-])c1 = inactive
O=C1C(=C([O-])c2ccccc2)C(=O)c2ccccc21.O=C1C(=C([O-])c2ccccc2)C(=O)c2ccccc21.[Fe+2] = inactive
CC(C)C[C@H](NC(=O)CNC(=O)c1cc(Cl)ccc1Cl)B1OC(=O)CC(CC(=O)O)(C(=O)O)O1 (stereo not given in full) = active
CC1=C2[C@@H](CC1)[C@]1(C)O[C@@](c3ccccc3)(C[C@H]1OC(=O)CO)[C@H]2OC(=O)/C=C/c1ccccc1 = active
COc1cccc(OC(=O)c2ccc(C(F)(F)F)nc2Nc2cc(Cl)ccc2C)c1 = inactive

Kindly consider the entry below.
What did this assay record as the result for COc1cc2nc(N3CCCC3)nc(NCCc3ccccc3)c2cc1OC ?
inactive

This collection of values is drawn from PubChem BioAssay (NCI).
